Catalogue of % Inhibition PKB I readings, one per entry.
- measured on: protein kinase B, P31749
- Sequence (P31749 whole entry): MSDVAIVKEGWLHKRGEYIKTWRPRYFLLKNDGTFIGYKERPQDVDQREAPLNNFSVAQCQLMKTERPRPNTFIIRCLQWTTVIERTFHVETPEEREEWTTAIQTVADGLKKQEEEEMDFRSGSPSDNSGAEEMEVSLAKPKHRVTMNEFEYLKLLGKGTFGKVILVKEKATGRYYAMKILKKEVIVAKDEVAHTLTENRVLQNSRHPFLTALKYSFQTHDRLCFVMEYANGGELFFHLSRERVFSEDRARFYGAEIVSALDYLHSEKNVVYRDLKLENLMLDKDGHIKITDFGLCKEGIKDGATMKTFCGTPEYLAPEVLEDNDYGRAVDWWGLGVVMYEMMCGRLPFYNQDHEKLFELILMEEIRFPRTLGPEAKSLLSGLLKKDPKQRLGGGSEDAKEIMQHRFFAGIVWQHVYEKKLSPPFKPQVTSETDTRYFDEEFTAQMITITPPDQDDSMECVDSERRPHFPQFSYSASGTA
- test: cell-based or functional assay
Where no end group is shown, it is not given here. [ ]: non-standard residue; d: D form. hLeu = CC(C)CC[C@H](N)C(=O)O; Nva = CCC[C@H](N)C(=O)O; Abu = CC[C@H](N)C(=O)O; Dap = NC[C@H](N)C(=O)O; Ph2 = not defined here; GlyNH2 = aminoglycine
Just the number in %, nothing appended.

The following binders have reported results that may help.
binder: RPRTSA[hLeu] [TY 60002-50]
observed measurement: 62

binder: RPR[Nva][GlyNH2][Abu][hLeu] [60006-7B]
observed measurement: 53

binder: RPR[Nva][GlyNH2][Dap][Ph2] (reading uncertain) [60006-11B]
observed measurement: 51

The measured % Inhibition PKB I associated with RPRTS[Abu][hLeu] [TY 60002-73] reads 44
